tested on: Plasmodium berghei; assay: Screen against P. berghei liver stage (PbLuc), transformed with Luciferase, at 10uM; type: functional, HepG2; conditions: tested at 10 uM
About 8,600 (12%) of roughly 69,000 compounds showed an effect of 50% or more. What follows is part of a selection rich in strong results, with near analogues and random picks from the rest.
Reported INHIBITION values follow for various compounds
quantity-name: INHIBITION (%)

> print(dat)
                              record.smiles  measurement.units  measurement
1  Cn1nnc2cc(C(=O)NS(=O)(=O)c3ccc(F)cc3)ccc21                  %         17.1
2   CCC(CC)n1ncc(C(=O)NS(=O)(=O)c2ccsc2)c1C                  %         38.4
3  CC(=O)N1CCC(C(=O)NCCc2c[nH]c3cc(C)ccc23)CC1                  %         11.9
4  Cc1c(C(=O)NS(=O)(=O)c2ccc(F)cc2)cnn1CC(C)C                  %           56
5  CC(C)N(CCC#N)C(=O)c1cnc(-c2ccc3c(c2)OCO3)s1                  %        -73.9
6        CN(Cc1nc(Cc2cccc(F)c2)no1)C1CCOCC1                  %        -24.2

====

tested on: Plasmodium berghei; experiment: Screen against P. berghei liver stage (PbLuc), transformed with Luciferase, at 10uM; assay type: functional, HepG2; details: tested at 10 uM
Among all 69,000 compounds or so, about 8,600 (12%) showed an effect of 50% or more. This is one part of a sample in which strong results are shown more often than they occur.
quantity-name: INHIBITION

> print(dat)
                                    molecule  quantity.name  measurement
 1     COc1cccc(C=CCCN2CCN(S(C)(=O)=O)CC2)c1     INHIBITION        -104%
 2  CC(C)Nc1cc(N2CCN(Cc3ccccc3)C(CCO)C2)ncn1 (stereo not drawn)     INHIBITION        9.06%
 3  CC(C)c1nnsc1CN1CCc2[nH]nc(-c3ccc(F)c(F)c3)c2C1     INHIBITION        70.4%
 4  O=C(NCC1CC1)[C@@H]1CC[C@@H]2[C@@H](CCN2Cc2ccco2)O1     INHIBITION         -35%
 5  CNc1nc(N2CCN(CC=C(C)C)C(CCO)C2)nc2c1CCC2 (stereo not drawn)     INHIBITION        68.6%
 6               COc1cccc(F)c1-c1c[nH]c(C)n1     INHIBITION        11.8%
 7  COc1cc(N2CCN(Cc3ccsc3)C(CCO)C2)nc(N)n1 (stereo not drawn)     INHIBITION        23.3%
 8  COC(=O)CCC(=O)N1CCc2[nH]nc(-c3ccc(F)c(F)c3)c2C1     INHIBITION        15.9%
 9  CCS(=O)(=O)N1CCC[C@]2(C(=O)N(C)C)CN(c3ncccn3)C[C@@H]2C1     INHIBITION       -47.6%
10   COC(=O)CC(C)(C)CC(=O)N1CCC(C(F)(F)F)CC1     INHIBITION        24.6%
11  CC(C)(C)c1ccc(-c2n[nH]c3c2CN(CC2CCOC2)CC3)cc1 (stereo not drawn)     INHIBITION        44.3%
12  CC(O)CN1CCc2[nH]nc(C(c3ccccc3)c3ccccc3)c2C1 (stereo not drawn)     INHIBITION       -12.1%
13          O=C(NCCc1ccn(-c2ccccc2)n1)N1CCC1     INHIBITION        26.9%
14  Cc1cc(N2CCC(NC(C)Cc3ccsc3)CC2)nc(N)n1 (stereo not drawn)     INHIBITION        64.9%
15  CNc1nc(N2CCN(C3CCCCC3)C(CCO)C2)nc2c1CCC2 (stereo not drawn)     INHIBITION          12%
16  COc1cccc(CN(C)C(C)C(=O)Nc2nc(C)c(C)s2)c1 (stereo not drawn)     INHIBITION        39.3%
17  Cc1cc(N2CCN(Cc3ccsc3)C(CCO)C2)nc(N)n1 (stereo not drawn)     INHIBITION        50.5%
18  Cc1cc(C)n(CC2CCCN2C(=O)Cc2c(C)nc(C)[nH]c2=O)n1 (stereo not drawn)     INHIBITION         2.3%
19       CNC(=O)CN1CCCC12CCN(Cc1c[nH]cn1)CC2     INHIBITION        19.5%
20  Cc1ccc(CN2C[C@@H]3C[C@H](C(=O)NCC4CC4)N(C)[C@@H]3C2)o1     INHIBITION        16.1%
21  CNc1nc(N2C[C@H](NC(=O)CCOC)[C@@H](C3CC3)C2)nc2c1CCC2     INHIBITION        33.4%
22  OC1COCCN(Cc2cccc(N3CCOCC3)c2)C1 (stereo not drawn)     INHIBITION        15.9%
23  CC(C)c1nnsc1CN1CCc2[nH]nc(-c3ccc(Cl)cc3)c2C1     INHIBITION        50.1%

====

system: Plasmodium berghei; experiment: Screen against P. berghei liver stage (PbLuc), transformed with Luciferase, at 10uM; format: functional, HepG2; settings: tested at 10 uM
In all, about 69,000 compounds went through this assay and about 8,600 (12%) showed an effect of 50% or more. The entries come from a sample that favours strong results as a whole.
Reported INHIBITION is given for each of the following compounds.
quantity-name: INHIBITION (%)

> print(dat)
                                    compound  measurement.units  measurement
 1  CC(NC(=O)NCCn1ccnc1)c1ccc2c(c1)CCC(=O)N2 (stereo not drawn)                  %        -15.5
 2  CCC1=NC(SCC(=O)c2ccc(C)cc2)c2cc(CC)sc2N1 (stereo not drawn)                  %         39.1
 3            CCS(=O)(=O)N1CCN(C(C)(C)CO)CC1                  %           11
 4              COc1cc(CNC(=O)Nc2nncs2)ccc1O                  %        -73.6
 5   CN(C)c1cccc(CNC(=O)Nc2ccc3[nH]nnc3c2)n1                  %        -4.13
 6  CCC(C(=O)NC1CCCC1)n1ccc2ncccc2c1=O (stereo not drawn)                  %        -13.2
 7  CSCC[C@@H](CO)NC(=O)c1sc(-c2ccccc2Cl)nc1C                  %         9.84
 8  Cc1nc2sc(C(=O)N3CCNC(=O)C3)c(C)c2c(=O)[nH]1                  %        -4.35
 9  Cc1ncc(C(=O)N2CCC(C(=O)NC3CCCC3)C2)c(C)n1 (stereo not drawn)                  %         19.3
10      CCn1cc(CN2CCCN(C(=O)c3cccn3C)CC2)cn1                  %         13.6
11  CC(C)CN1CCC2(C1)CN(S(=O)(=O)c1cn(C)cn1)C2                  %         35.8
12  O=C(NC1CC1)[C@H]1CN(Cc2ccc3c(c2)OCO3)C[C@H]2OCC[C@@H]12                  %        -23.3
13  COC(=O)C(CNC(=O)Nc1nncs1)Cc1ccc(F)cc1 (stereo not drawn)                  %         37.6
14  Cc1cccc(N2CCOCC3(C2)CN(c2cnn(C)c2)C(=O)CO3)n1 (stereo not drawn)                  %         44.4
15  CC1CN(C(=O)CN(Cc2ccccc2Cl)C2CCCC2)CCO1 (stereo not drawn)                  %       -0.219
16    COCCn1c2c(ccc1=O)CCN(C(=O)Cc1ccsc1)CC2                  %         27.5
17        O=C(c1ccncc1)N1CCCn2nnc(COCCO)c2C1                  %         29.8
18  Cn1cnc(S(=O)(=O)N2CCN(CC3CC3)c3ncccc3C2)c1                  %        -22.1
19    COc1ccc(C)c(NC(=O)NCc2cccc(N(C)C)n2)c1                  %        -35.2
20   COc1ccc(NC(=O)NCc2cccc(N(C)C)n2)c(Cl)c1                  %         7.49
21         CC(C)c1nn(C)cc1CNCc1cccc(N(C)C)c1                  %         12.4
22  COC1CCCOC12CCN(C(=O)c1ccc3[nH]nnc3c1)CC2 (stereo not drawn)                  %        -29.9
23  COC(=O)c1ccc(-c2cc(C(F)(F)F)cc(N(C)C)n2)cc1                  %         23.6
24    CN(C)c1cccc(CNC(=O)Nc2cc(C#N)ccc2Cl)n1                  %         15.8
25  c1ncn(CC2CCCN(Cc3csc(-c4ccsc4)n3)C2)n1 (stereo not drawn)                  %        -12.2
26  CC(=O)c1ccc(NC(=O)NCc2cccc(N(C)C)n2)cc1C                  %         62.1
27    c1cnc2c(c1)cc([C@H]1CCCO1)n2CCN1CCCCC1                  %         35.3
28     CCN1CCC2(C1)CN(S(=O)(=O)c1cn(C)cn1)C2                  %         65.7
29  CCC1=NC(SCC(=O)c2ccc(Cl)cc2)c2cc(CC)sc2N1 (stereo not drawn)                  %           30
30   CN1CCC(N(CCc2ccccc2)C(=O)c2cc[nH]c2)CC1                  %         32.8
31  CC(C)N1CCN(C(=O)Nc2cnc3c(cnn3C(C)C)c2)CC1                  %         27.6
32      CCOc1ccc(C#N)cc1NCC(=O)NC1(C#N)CCCC1                  %        -2.53
33  O=C(NCc1ccccc1)N1CCC2(CC(=O)N(c3ccccc3)C2)C1 (stereo not drawn)                  %        -14.7
34   Cc1cnc(N2CCn3cc(CNC(=O)CC4CC4)nc3C2)nc1                  %         25.6
35  Cc1nc(Cc2ccc(F)cc2)cc(C2COCCN2)n1 (stereo not drawn)                  %       35.305
36      Cn1cnc(S(=O)(=O)N2CCSC3(CCCCC3)C2)c1                  %        -37.8
37      CC(C)NC(=O)c1cc2c(s1)CCN2C(=O)CN(C)C                  %         8.67
38  COC(=O)C(CNC(=O)Nc1cn[nH]c1)Cc1cccc(C)c1 (stereo not drawn)                  %         11.9
39           CC(C)CNC(=O)CC1(Cn2cnnn2)CCCCC1                  %         67.3
40  CN(C)C(=O)NC1COC2(CCN(Cc3ccccc3)CC2)C1 (stereo not drawn)                  %         37.5
41           Cc1cnc(C2(C)CCN(Cc3cscn3)CC2)s1                  %        -6.92
42  CCCn1c(C)c(CC(=O)NC(C)(C)CO)c2c1CC(C)(C)CC2=O                  %         4.25
43  O=C1CO[C@@H]2CN(Cc3cccs3)C[C@H]2N1CC1CC1                  %         24.5
44  Cn1cnc(S(=O)(=O)N2CC3(CCN(c4ccccc4)C3)C2)c1                  %           53
45  Cn1cnc(S(=O)(=O)N2CC3(CCN(CC4CC4)C3)C2)c1                  %         67.5
46    COc1cc(F)cc(NC(=O)NCc2cccc(N(C)C)n2)c1                  %         55.3
47  CCC(CC#N)n1ccc(C(F)(F)F)n1 (stereo not drawn)                  %         21.9
48  CCCOC(C)C(=O)NCc1cc2n(n1)CCCN(C1CCCCC1)C2 (stereo not drawn)                  %         14.8
